Biological target: recombinant Human CYP17 enzyme (17-20 lyase) (Homo sapiens)
Construct: made in house; host or cells: A549 cells, adenoviral expression system; purified cell membrane preparations
Sequence (P05093 whole entry): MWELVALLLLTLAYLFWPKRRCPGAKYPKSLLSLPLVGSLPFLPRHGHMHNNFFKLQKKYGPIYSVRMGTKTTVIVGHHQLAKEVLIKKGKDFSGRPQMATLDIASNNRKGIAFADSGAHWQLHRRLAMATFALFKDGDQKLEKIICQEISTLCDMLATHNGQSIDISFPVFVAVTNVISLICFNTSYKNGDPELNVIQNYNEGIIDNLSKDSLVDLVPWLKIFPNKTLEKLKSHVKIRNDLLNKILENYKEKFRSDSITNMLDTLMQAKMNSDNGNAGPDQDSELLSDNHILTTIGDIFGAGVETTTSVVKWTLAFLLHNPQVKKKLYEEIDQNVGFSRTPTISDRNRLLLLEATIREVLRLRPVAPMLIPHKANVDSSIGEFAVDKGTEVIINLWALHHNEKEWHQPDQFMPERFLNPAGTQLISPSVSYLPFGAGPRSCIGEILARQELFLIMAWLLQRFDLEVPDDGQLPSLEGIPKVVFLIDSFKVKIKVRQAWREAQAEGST
Assay: Cytochrome P450, 17-20 lyase (CYP17-lyase) assay, 17-α-hydroxy pregnenolone [21-3H] as substrate
Format: biochemical
Conditions: human CYP17 lyase; substrate 0.25 μM; room temperature, 90 minutes; read-out: Lyase IC 50 nM Human
Description: 1) Cytochrome P450, 17-20 Lyase (CYP17-Lyase) Assay Development Using Recombinant Human CYP17 Enzyme and 17-α-Hydroxy Pregnenolone [21-3H] as the Substrate. Cytochrome P450, 17-α-Hydroxylase, 17-20 lyase (CYP17) is a multi functional enzyme that plays a key role in the biosynthesis of steroid hormones. […] In the Cyp17 lyase assay described here, the conversion of 17-α-hydroxy pregnenolone to Dehydroepiandrosterone and acetic acid is being monitored. […]
ASSAY READOUT: IC50 (nM)

In [3]: df
Out[3]:
                                   compound                           measured_target  assay_readout  test_result
0  O=C1c2c(sc3ccccc23)CCN1c1cnccc1C(F)(F)F [Example 58A]  recombinant Human CYP17 enzyme (17-20 lyase) (Homo sapiens)           IC50          218

(P) CCn1c2c(c3ccccc31)CC(C)N(c1cccnc1)C2=O (stereo not drawn) [Example 42A]
(Q) Cc1ccncc1N1CCc2ccc(C(F)(F)F)cc2C1=O [Example 4A]
(R) O=C1c2ccc(C(F)(F)F)cc2CCN1c1cncc(F)c1 [Example 56A]
(Q) Arrange these compounds by their IC50, starting with the largest number. Note for the reader: the ranking is given by listing the labels in the order requested.
(A) R, P, Q

(A) COc1cc2c(cc1Cl)C(=O)N(c1cnccc1C)CC2 [Example 86A]
(B) Cc1ccncc1N1CCc2ccc3ccccc3c2C1=O [Example 10A]
(C) O=C1c2cc3[nH]ncc3cc2CCN1c1cnccc1C(F)(F)F [Example 72A]
(D) O=C1c2cc(Cl)c(F)cc2CCN1c1cnccc1C(F)(F)F [Example 80A]
(E) O=C1c2cc(Cl)ccc2CCN1c1cccnc1 [Example 1A]
(Q) Arrange these 5 compounds in increasing order of IC50. Note for the reader: the ranking is given by listing the labels in the order requested.
(A) B, A, E, D, C
(B: 3.5 nM, A: 11 nM, E: 60 nM, D: 173 nM, C: 730 nM)

(a) O=C1c2cc(Cl)c(F)cc2CCN1c1cnccc1C1CC1 [Example 82A]
(b) Cc1ccncc1N1CCc2ccc(C(F)(F)F)c(F)c2C1=O [Example 47A]
(c) Cc1ccncc1N1CCc2ccc(OCC3CC3)cc2C1=O [Example 31A]
(d) O=C1c2cc(C(F)(F)F)ccc2CCN1c1cncc2ccccc12 [Example 19A]
(e) O=C1c2cc(C(F)(F)F)c(Cl)cc2CCN1c1cnccc1C(F)(F)F [Example 85A]
(Q) Arrange these 5 compounds in increasing order of IC50. Note for the reader: the ranking is given by listing the labels in the order requested.
(A) a, b, d, e, c
(a: 3 nM, b: 12 nM, d: 44 nM, e: 108 nM, c: 727 nM)

(P) O=C1c2c(sc3ccccc23)CCN1c1cnccc1C1CC1 [Example 76A]
(Q) CC1Cc2ccc(C(F)(F)F)cc2C(=O)N1c1cccnc1 (stereo not drawn) [Example 43A]
(R) Cc1ccncc1N1CCc2ccc(-c3ccc(F)cc3)cc2C1=O [Example 3A]
(S) Cc1ccncc1N1CCc2sc3ccccc3c2C1=O [Example 9A]
(Q) Arrange these compounds by their IC50, starting with the largest number. Note for the reader: the ranking is given by listing the labels in the order requested.
(A) R, Q, P, S
